- Measurement Description: Interaction with barbiturates (EVIPAN, loss of righting reflex)
- Assay type: in vivo
- Condition Set: Mus musculus, ip; mice, 50 mg/kg i.p. (head), EVIPAN 75 mg/kg; read-out: Barbituric interaction, % reduction of RR (righting reflex) loss
Cut-off 40% on inhibition in vivo at 50 mg/kg, inclusive. At or above means Criterion met; below means Criterion not met.

Worked set:
CCC(=O)OC(CC(=O)NC(C(=O)OC)C(C)C)C[N+](C)(C)C (stereo not drawn) ... Criterion met
CCCC(=O)OC(CC(=O)NCCS(=O)(=O)[O-])C[N+](C)(C)C (stereo not drawn) ... Criterion met
CCOC(=O)CC(O)CNC(=O)CC(C[N+](C)(C)C)OC(C)=O (stereo not drawn) ... Criterion not met

**Q:** Is inhibition in vivo at 50 mg/kg for CCC(=O)OC(CC(=O)NC(CCC(=O)OC)C(=O)OC)C[N+](C)(C)C (stereo not drawn) at or above 40%?
**A:** Criterion met

**Q:** Is inhibition in vivo at 50 mg/kg for COC(=O)C(CC(C)C)NC(=O)CC(C[N+](C)(C)C)OC(C)=O (stereo not drawn) at or above 40%?
**A:** Criterion not met

---

- Measurement Description: Acute toxicity (LD50), Weil method
- Condition Set: mouse, in vivo; oral, mice (Table I title); read-out: LD50 oral
Experimental Endpoint: LD50 (mg/kg)
The answer is to be given in mg/kg; state only the numeric part.

Here's what some known entries look like.
CCC(=O)OC(CC(=O)NC(CC(=O)OC)C(=O)OC)C[N+](C)(C)C (centres unmarked) ... 1800
CC(=O)OC(CC(=O)NCCS(=O)(=O)[O-])C[N+](C)(C)C (centres unmarked) [COCH3; 2-sulfonyl ethyl amino, acetyl carnitine amide with taurine] ... 4000
COC(=O)CC(NC(=O)CC(C[N+](C)(C)C)OC(C)=O)C(=O)OC (centres unmarked) ... 4200
CCC(=O)OC(CC(=O)NC(CC(C)C)C(=O)OC)C[N+](C)(C)C (centres unmarked) ... 2350

Next compound, please.
**Q:** Reported LD50 for CCC(=O)OC(CC(=O)NCCS(=O)(=O)[O-])C[N+](C)(C)C (centres unmarked) : what is it?
**A:** 4000
